Compiled IC50 measurements on JNK3 (Homo sapiens) taken from the literature.
REPORTED_ENDPOINT: IC50

[[record]]
molecule = "Cn1cc(-c2c[nH]c3ncc(OC4CCCC4)cc23)cn1"
recorded_measurement = "< 200 nM"

[[record]]
molecule = "O=C(c1c(F)ccc(O)c1F)c1c[nH]c2ncc(-c3cccnc3)cc12"
recorded_measurement = "≤ 10000 nM"

[[record]]
molecule = "O=C(Cn1c(=O)ccc2ncccc21)Nc1scc(Br)c1-c1ncn[nH]1"
recorded_measurement = "< 100 nM"

[[record]]
molecule = "CCNc1nccc(-c2c(-c3ccc(F)cc3)nc3n2[C@H](Cn2ccc4cccc(F)c42)CC3)n1"
recorded_measurement = "61 nM"

[[record]]
molecule = "CC(=O)Nc1cccc(-c2cnc3[nH]cc(C(=O)c4cccc(O)c4F)c3c2)c1"
recorded_measurement = "≤ 10000 nM"

[[record]]
molecule = "CCCCCc1cnc2[nH]cc(-c3csc(C(=O)N(C)C)n3)c2c1"
recorded_measurement = "< 500 nM"

[[record]]
molecule = "COc1cccc(C(=O)c2c[nH]c3ncc(-c4cccnc4)cc23)c1"
recorded_measurement = "≤ 10000 nM"

[[record]]
molecule = "Cn1cc(-c2c[nH]c3ncc([C@H]4CC[C@@H](N5CCCCC5)CC4)cc23)cn1"
recorded_measurement = "151 nM"

[[record]]
molecule = "N#Cc1ccc2ccc(=O)n(CC(=O)Nc3scc(Br)c3-c3ncn[nH]3)c2c1"
recorded_measurement = "< 100 nM"

[[record]]
molecule = "O=C(CN1C(=O)CCc2ccccc21)Nc1ccsc1-c1c[nH]cn1"
recorded_measurement = "100 to 10000 nM"

[[record]]
molecule = "Oc1cc(O)cc(Cc2c[nH]c3ncc(-c4ccsc4)cc23)c1"
recorded_measurement = "≤ 10000 nM"

[[record]]
molecule = "C=C(C)c1cnc2[nH]cc(C(=O)c3c(F)ccc(NS(=O)(=O)CCC)c3F)c2c1"
recorded_measurement = "≤ 10000 nM"

[[record]]
molecule = "CCN(CCOC)[C@H]1CC[C@@H](c2cnc3[nH]cc(-c4cnn(C)c4)c3c2)CC1"
recorded_measurement = "257 nM"

[[record]]
molecule = "Cn1cc(-c2c[nH]c3ncc([C@@H]4C[C@H]5O[C@@H]4CC5C#N)cc23)cn1 (stereo partly drawn)"
recorded_measurement = "295 nM"

[[record]]
molecule = "CN1CCN([C@H]2CC[C@@H](c3cnc4[nH]cc(-c5cnn(C)c5)c4c3)CC2)CC1"
recorded_measurement = "94 nM"

[[record]]
molecule = "c1cc2cc(-c3ccsc3)cnc2[nH]1"
recorded_measurement = "≤ 10000 nM"

[[record]]
molecule = "O=C(c1cccc(O)c1F)c1c[nH]c2ncc(-c3cccs3)cc12"
recorded_measurement = "≤ 10000 nM"

[[record]]
molecule = "Cc1nc(-c2sccc2NC(=O)Cc2cccc3ccccc23)n(C)n1"
recorded_measurement = "> 10000 nM"

